Data credit: paper PMC6543015

Biological target: native GluN2B‐containing NMDA receptors (Gallus gallus, UniProt F1NMB0+Q4KXT1)
Sequence (F1NMB0 entry or part of it, other chains not shown): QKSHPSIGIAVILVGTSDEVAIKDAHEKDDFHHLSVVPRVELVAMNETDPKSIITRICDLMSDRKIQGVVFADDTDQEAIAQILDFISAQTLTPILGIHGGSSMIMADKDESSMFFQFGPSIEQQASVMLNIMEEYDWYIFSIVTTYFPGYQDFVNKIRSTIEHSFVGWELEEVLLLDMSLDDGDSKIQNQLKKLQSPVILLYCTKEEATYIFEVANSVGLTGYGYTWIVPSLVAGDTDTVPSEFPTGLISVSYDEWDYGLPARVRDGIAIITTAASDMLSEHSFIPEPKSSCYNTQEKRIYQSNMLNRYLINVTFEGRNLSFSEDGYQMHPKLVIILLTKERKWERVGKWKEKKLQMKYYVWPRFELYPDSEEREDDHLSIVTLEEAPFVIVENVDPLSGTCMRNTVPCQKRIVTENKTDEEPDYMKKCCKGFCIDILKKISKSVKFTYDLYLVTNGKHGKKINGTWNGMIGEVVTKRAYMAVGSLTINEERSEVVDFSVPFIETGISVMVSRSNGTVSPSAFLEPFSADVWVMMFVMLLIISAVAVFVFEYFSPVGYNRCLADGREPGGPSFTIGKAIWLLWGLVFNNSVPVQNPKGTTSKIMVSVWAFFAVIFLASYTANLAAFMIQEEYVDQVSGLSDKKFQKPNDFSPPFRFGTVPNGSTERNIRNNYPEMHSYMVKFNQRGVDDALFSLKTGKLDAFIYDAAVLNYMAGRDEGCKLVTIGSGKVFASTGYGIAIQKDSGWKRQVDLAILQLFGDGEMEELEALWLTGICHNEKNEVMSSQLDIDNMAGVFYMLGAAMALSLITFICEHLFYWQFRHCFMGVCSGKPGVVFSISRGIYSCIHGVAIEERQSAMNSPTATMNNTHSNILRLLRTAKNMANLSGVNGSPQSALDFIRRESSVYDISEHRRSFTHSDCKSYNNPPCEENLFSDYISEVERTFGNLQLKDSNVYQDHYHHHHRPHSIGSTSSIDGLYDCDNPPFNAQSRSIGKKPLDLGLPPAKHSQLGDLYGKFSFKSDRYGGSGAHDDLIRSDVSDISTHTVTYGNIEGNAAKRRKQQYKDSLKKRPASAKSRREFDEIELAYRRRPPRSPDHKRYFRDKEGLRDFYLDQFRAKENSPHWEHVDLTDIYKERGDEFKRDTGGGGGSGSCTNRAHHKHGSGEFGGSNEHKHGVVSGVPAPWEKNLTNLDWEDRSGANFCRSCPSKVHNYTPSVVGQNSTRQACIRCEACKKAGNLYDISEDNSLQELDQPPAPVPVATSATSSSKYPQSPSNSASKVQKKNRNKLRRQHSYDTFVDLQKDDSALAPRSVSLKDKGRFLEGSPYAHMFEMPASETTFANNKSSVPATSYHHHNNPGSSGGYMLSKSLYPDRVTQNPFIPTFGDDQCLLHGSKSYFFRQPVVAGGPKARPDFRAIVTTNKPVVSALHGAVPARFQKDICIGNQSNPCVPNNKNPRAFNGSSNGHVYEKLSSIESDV
Test: Calcium influx measurement (Fura-2) in E10 chicken embryo forebrain cell culture at DIV1, induced with NMDA and glycine
Format: cell-based, chicken (Gallus gallus)
Conditions: E10 chicken forebrain cell culture at DIV 1; NMDA 200 and glycine 100 μmol/L; Fura-2; read-out: IC50 Chicken (present work)
# label = Fulfilled if IC50 < 200 nM else Not fulfilled

**Query** hey, is IC50 for COc1cc2c(cc1O)C(CCc1ccc(Cl)cc1)N(C)CC2 (centres unmarked) lower than 200 nM or not?
**Result** Fulfilled

**Query** Quick check: does OC(CN1CCC(Cc2ccc(F)cc2)CC1)c1ccc(Cl)cc1 (centres unmarked) have IC50 under 200 nM?
**Result** Not fulfilled

**Query** IC50 strictly < 200 nM for this compound? Cc1nccn1Cc1cc(-c2ccc(F)c(C(F)F)c2)cnn1.Cl.Cl
**Result** Fulfilled

**Query** For CC(C(O)c1ccc(O)cc1)N1CCC(Cc2ccccc2)CC1 (centres unmarked) , is the recorded IC50 below the cut-off of 200 nM?
**Result** Fulfilled

**Query** Strictly below 200 nM in IC50? C[C@@H]([C@H](O)c1ccc(O)cc1)N1CCC(Cc2ccccc2)CC1
**Result** Fulfilled

---

Molecular target: native GluN2B‐containing NMDA receptors (Gallus gallus, UniProt F1NMB0+Q4KXT1)
Experiment: Calcium influx measurement (Fura-2) in E10 chicken embryo forebrain cell culture at DIV1, induced with NMDA and glycine
Format: cell-based, chicken (Gallus gallus)
Conditions: chicken forebrain culture calcium influx assay; read-out: IC50 value
pIC50: −log10 of the molar value.
endpoint: pIC50

**Query** Report measured pIC50; entry is COc1cc2c(cc1O)C(CCc1ccc(Cl)cc1)N(C)CC2 (stereo not shown) [Ro 04‐5595]
**Result** > 6.70
